target.under.test: Porcine pancreatic elastase (Sus scrofa, UniProt P00772)
Sequence (P00772 27-266): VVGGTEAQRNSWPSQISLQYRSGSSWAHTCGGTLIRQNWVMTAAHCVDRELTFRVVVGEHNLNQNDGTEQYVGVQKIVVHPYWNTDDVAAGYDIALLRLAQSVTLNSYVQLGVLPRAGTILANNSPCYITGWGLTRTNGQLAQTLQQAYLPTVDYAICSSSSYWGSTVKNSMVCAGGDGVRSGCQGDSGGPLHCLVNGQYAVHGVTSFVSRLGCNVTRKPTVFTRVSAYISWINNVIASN
outcome.measure: pIC50
Please keep in mind that pIC50 is minus log10 of the molar concentration; only the number is needed.

IN: Give pIC50 (Porcine pancreatic elastase (Sus scrofa, UniProt P00772)) of the following compound: O=C(O[C@@H]1Cc2c(O)cc(O)cc2O[C@@H]1c1cc(O)c(O)c(O)c1)c1cc(O)c(O)c(O)c1 [epigallocatechin gallate]
OUT: 4.65
